Target: SIRT1 (Homo sapiens, UniProt Q96EB6)
Sequence (Q96EB6 1-747): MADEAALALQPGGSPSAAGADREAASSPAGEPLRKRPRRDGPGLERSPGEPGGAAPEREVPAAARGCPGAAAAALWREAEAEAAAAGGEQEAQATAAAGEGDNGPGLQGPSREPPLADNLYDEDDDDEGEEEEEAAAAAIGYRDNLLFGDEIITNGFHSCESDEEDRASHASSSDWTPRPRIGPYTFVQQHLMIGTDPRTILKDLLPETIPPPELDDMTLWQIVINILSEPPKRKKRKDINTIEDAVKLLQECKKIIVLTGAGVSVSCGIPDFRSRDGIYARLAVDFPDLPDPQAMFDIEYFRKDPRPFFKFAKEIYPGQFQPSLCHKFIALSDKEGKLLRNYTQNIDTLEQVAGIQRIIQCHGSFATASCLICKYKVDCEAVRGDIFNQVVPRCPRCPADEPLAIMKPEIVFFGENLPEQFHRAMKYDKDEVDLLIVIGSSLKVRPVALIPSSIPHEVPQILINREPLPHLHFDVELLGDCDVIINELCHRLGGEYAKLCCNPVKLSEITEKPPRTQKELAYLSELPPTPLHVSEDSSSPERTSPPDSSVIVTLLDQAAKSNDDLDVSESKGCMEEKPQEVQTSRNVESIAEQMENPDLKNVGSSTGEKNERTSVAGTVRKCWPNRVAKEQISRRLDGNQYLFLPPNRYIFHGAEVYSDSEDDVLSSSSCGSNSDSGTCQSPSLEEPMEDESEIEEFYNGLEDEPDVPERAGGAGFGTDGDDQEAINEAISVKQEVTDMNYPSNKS
Experiment: Trp mass spectrometry assay of SIRT1 activity
Type: biochemical
Settings: Trp peptide substrate; percent maximum fold activation; read-out: Trp % Fold Act
quantity.kind: Emax

Exercise: Form: Entry = Cc1cc(NC(=O)c2cnc3ccc(-c4ccccc4C(F)(F)F)nn23)cc(OC[C@@H](O)CO)n1 | System = SIRT1 (Homo sapiens, UniProt Q96EB6) | Emax = ____
Solution: ≥ 350%

Exercise: // query: Cc1cc2ncc(NC(=O)c3cccc(N4CCC4)n3)n2nc1-c1ccccc1C(F)(F)F
Solution: ≥ 350%

Exercise: // query: Cc1cnc(C(=O)Nc2cnc3c(C)cc(-c4ccccc4C(F)(F)F)nn23)s1
Solution: < 350%

Exercise: // query: Cc1cc(C)nc(C(=O)Nc2cnc3ccc(-c4ccccc4C(F)(F)F)nn23)c1
Solution: < 350%

Exercise: // query: O=C(Nc1ncn2ccc(-c3ccccc3C(F)(F)F)nc12)c1ccncn1
Solution: < 350%

Exercise: // query: Cc1c(-c2ccccc2C(F)(F)F)nn2c(NC(=O)c3cccc(N4CCCC4)n3)cnc2c1C
Solution: ≥ 350%

Exercise: // query: Cc1nc(NC(=O)c2c(C)nc3c(C)cc(-c4ccccc4C(F)(F)F)nn23)sc1C
Solution: < 350%

Exercise: // query: Cc1cc(C)nc(NC(=O)c2cnc3ccc(N4CC[C@@H](N(C)C)C4)nn23)c1
Solution: < 350%

Exercise: // query: Cc1cccc(NC(=O)c2cnc3ccc(-c4ccccc4OC(F)(F)F)nn23)n1
Solution: < 350%

Exercise: // query: Cc1nc2c(C)cc(-c3ccccc3OC(F)(F)F)nn2c1C(=O)Nc1ccncn1
Solution: ≥ 350%

Exercise: // query: Cc1cc(NC(=O)c2c(C)nc3c(C)cc(-c4ccccc4C(F)(F)F)nn23)nc(C)n1
Solution: ≥ 350%

Exercise: // query: COc1cccc(C(=O)Nc2cnc3ccc(-c4ccccc4C(F)(F)F)nn23)n1
Solution: ≥ 350%

Exercise: // query: Cc1nc2c(C)cc(-c3ccccc3C(F)(F)F)nn2c1C(=O)Nc1ccncn1
Solution: ≥ 350%

Exercise: // query: Cc1nc2ccc(-c3ccccc3OC(F)(F)F)nn2c1C(=O)Nc1ccccn1
Solution: < 350%

Exercise: // query: Cc1cccc(C(=O)Nc2cnc3ccc(N4CC[C@H](F)C4)nn23)n1
Solution: < 350%

Exercise: // query: Cc1ccnc(NC(=O)c2cnc3ccc(-c4ccccc4OC(F)(F)F)nn23)n1
Solution: ≥ 350%

Exercise: // query: O=C(Nc1ccc(F)cn1)c1cnn2ccc(-c3ccccc3C(F)(F)F)nc12
Solution: < 350%

Exercise: // query: Cc1cc(-c2ccccc2C(F)(F)F)nn2c(C(=O)Nc3ccncc3F)cnc12
Solution: ≥ 350%

Exercise: // query: Cc1cc(-c2ccccc2C(F)(F)F)nn2c(NC(=O)c3cccc(OCC(O)CO)n3)cnc12 (stereo not drawn)
Solution: ≥ 350%

Exercise: // query: Cc1cc(NC(=O)c2cnc3ccc(-c4ccccc4OC(F)(F)F)nn23)cc(C)n1
Solution: ≥ 350%

Exercise: // query: O=C(Nc1cccc(N2CCOCC2)n1)c1ncn2ccc(-c3ccccc3C(F)(F)F)nc12
Solution: ≥ 350%

Exercise: // query: Cc1nc2c(C)cc(-c3ccccc3C(F)(F)F)nn2c1C(=O)Nc1cccnn1
Solution: ≥ 350%

Exercise: // query: Cc1nc2ccc(-c3ccccc3C(F)(F)F)nn2c1C(=O)Nc1ccncc1
Solution: ≥ 350%

Exercise: // query: O=C(Nc1cncc(OC[C@H](O)CO)n1)c1cnc2ccc(-c3ccccc3C(F)(F)F)nn12
Solution: ≥ 350%

Exercise: // query: Cc1cc(NC(=O)c2cnc3ccc(-c4ccccc4OCC(O)CO)nn23)cc(C)n1 (stereo not drawn)
Solution: ≥ 350%

Exercise: // query: Cc1nc2c(C)cc(-c3ccccc3C(F)(F)F)nn2c1NC(=O)c1cccc(O)n1
Solution: < 350%

Exercise: // query: O=C(Nc1cnc2ccc(-c3ccccc3C(F)(F)F)nn12)c1ncccc1F
Solution: < 350%

Exercise: // query: Cc1nc2c(C)cc(-c3ccccc3C(F)(F)F)nn2c1C(=O)Nc1cnccn1
Solution: ≥ 350%

Exercise: // query: O=C(Nc1cccnc1)c1cnn2ccc(-c3ccccc3OC(F)(F)F)nc12
Solution: ≥ 350%

Exercise: // query: Cc1cc(C)nc(C(=O)Nc2cnn3ccc(-c4ccccc4C(F)(F)F)nc23)c1
Solution: < 350%

Exercise: // query: Cc1nn2ccc(-c3ccccc3C(F)(F)F)nc2c1NC(=O)c1cccc(N2CCOCC2)n1
Solution: < 350%

Exercise: // query: O=C(Nc1cccc(CN2CCOCC2)n1)c1cnn2ccc(-c3ccccc3OC(F)(F)F)nc12
Solution: ≥ 350%

Exercise: // query: Cc1nc2ccc(-c3ccccc3C(F)(F)F)nn2c1C(=O)Nc1cnccn1
Solution: ≥ 350%
